- Test system: NCI-H226 lung
- Assay Summary: NCI-60 one-dose screen, 48 h (100 = growth as untreated, 0 = no growth, -100 = all killed)
- Measurement Context: 10 µM unless noted
About 83,000 compounds went through this panel and 20% of them were active in at least one assay; those are over-represented in the sample as a whole.
Kindly return satisfied if reported growth is no lower than 70%; return not satisfied if it is lower.

Tell me whether growth is at least 70% here: CCOC(=O)c1sc(-c2ccc(OS(=O)(=O)c3ccc(C(C)(C)C)cc3)c(C=O)c2)nc1C
not satisfied

Quick one: Cc1ccccc1NC(=O)CN(C)C
satisfied

Quick one: O=C(/C=C/C12c3ccccc3C(c3ccccc31)C1C(=O)NC(=O)C12)c1ccccc1 (stereo not given)
not satisfied

Quick one: COc1ccccc1NC(=O)Nc1ccc(-c2nc3ccccc3o2)cc1
satisfied

* * *

- System: ACHN renal
- Assay Summary: NCI-60 one-dose screen, 48 h (100 = growth as untreated, 0 = no growth, -100 = all killed)
- Measurement Context: 10 µM unless noted
About 83,000 compounds went through this panel and 20% of them were active in at least one assay; those are over-represented in the sample as a whole.
# note: boundary value 90% maps to Not fulfilled; growth below it maps to Fulfilled

INSERT INTO measurements (molecule, system_name, class_label) VALUES
  ('CCCCOc1ccc(NC(=O)n2nc(N=NN(C)C)c3ccc(Cl)cc32)cc1', 'ACHN renal', 'Not fulfilled'),
  ('NC(=O)c1c(NC(=O)c2ccc(C(F)(F)F)cc2Cl)sc2c1CCC(=O)C2', 'ACHN renal', 'Fulfilled'),
  ('CN1CCN(CCCOc2ccc3nc(Nc4cc(Cl)cc(Cl)c4)ccc3c2)CC1', 'ACHN renal', 'Fulfilled');

Regarding CN(C)c1ccc(-c2cc(-c3ccc(Nc4nc(Nc5ccccc5)nc(Nc5ccc(Cl)cc5)n4)cc3)nc(N)n2)cc1 , kindly confirm whether its growth is beneath 90%.
Fulfilled

Quick one: CCn1c(Sc2nnc(NC(=O)CSC(=S)N3CCCCC3)s2)nc2c1c(=O)n(C)c(=O)n2C
Fulfilled

Quick one: CCCn1nc(-c2ccccc2)c2c(-c3ccccc3)onc2c1=O
Not fulfilled

Quick one: COc1ccc(C(=O)/C=C/C23c4ccccc4C(c4ccccc42)C2C(=O)NC(=O)C23)cc1 (centres undefined)
Not fulfilled

Quick one: N#Cc1cnn2c(-c3ccc(Cl)cc3)nc(NCCc3ccccc3)nc12
Not fulfilled

Quick one: O=C1C2=C(CCN(Cc3ccccc3)C2)N2CCN=C2N1Cc1ccc(C(F)(F)F)cc1
Fulfilled

* * *

- System: MCF7 breast
- Assay Summary: NCI-60 one-dose screen, 48 h (100 = growth as untreated, 0 = no growth, -100 = all killed)
- Measurement Context: 10 µM unless noted
- Description: Growth inhibition of the MCF7 human tumor cell line is measured as a screen for anti-cancer activity. Cells are grown in 96 well plates and exposed to the test compound for 48 hours. Compounds are tested at a single concentration, which is 10^-5 M for most compounds. The reported endpoint is percent growth (GI% or GIPRCNT), where numbers from 0 - 100% represent growth inhibition, and numbers from -100% - 0 represent cell death. For example, a value of 40 represents 60% growth inhibition. […]
Compounds without any hit were thinned out: in the full panel of roughly 83,000, 20% have a hit.
Give growth for every item shown.
One number for each entry, in %.

INSERT INTO results (compound, result) VALUES
  ('O=C(NC1CCOCC1)c1ccc2c(c1)CN(c1ncc(Cc3cccc(-n4cccn4)c3)s1)CC2', 56.9),
  ('COc1cc2c(cc1OC)-c1ccc3cc4c(cc3c1N(CCCn1ccnc1)C2)OCO4', 14),
  ('CCC(C)NCc1ccccc1 (stereo not given)', 102),
  ('C=C(C)[C@@H]1CC[C@@]2(C(=O)O)CC[C@]3(C)C(CCC4[C@@]5(C)CCC(OS(=O)(=O)c6ccccc6)C(C)(C)C5CC[C@]43C)C12 (stereo not given in full)', 50.6),
  ('c1ccc([P+](CCCc2n(Cc3ccc4ccccc4c3)c3ccccc3[n+]2Cc2ccc3ccccc3c2)(c2ccccc2)c2ccccc2)cc1', 73.9);

Below is a list of compounds. For each, state its recorded growth.
1. COc1ccc(-c2nnc(SCC(=O)NC3=NN=C(c4ccccc4)CS3)o2)cc1
2. O=C(Nc1cccc2[nH]c(C(F)(F)F)nc12)c1cc(Cl)ccc1Cl
3. CCCn1nc(-c2ccccc2)c2c(-c3ccccc3)onc2c1=O
4. CN(C)CCOC(=O)Nc1ccc(Cl)cc1
5. Clc1ccc(-c2cn(-c3ccccc3)c(-c3ccccc3)n2)cc1

1: 102; 2: 16.7; 3: 40.9; 4: 94.4; 5: 9.74
